Assay: protein stability index of a GFP-peptide fusion (yeast GPS) (PSI 1-4); higher = more stable; sorted into four equal gates, so the index is relative within each strain
Conditions: san1∆
param class (str): category from protein stability index; see ranges bottom bin: < 2; middle bin: ≥ 2 and < 3; top bin: ≥ 3

>>> class_assignment("DNETKAMLINLILRDFL [RPN3]")
"middle bin"
>>> class_assignment("LLLKKLDNFQKSVEKTM [SMC3]")
"middle bin"
>>> class_assignment("ELNDNPAWFNNPRKRAI [YMR153W/NUP53]")
"middle bin"
>>> class_assignment("LRPGRIDRKVEFSLPDL [RPT1]")
"top bin"
>>> class_assignment("AGDIQLQYGWKVERHIM [RPO21]")
"bottom bin"
>>> class_assignment("GTISKLENKENGLLNEI [SMC2]")
"top bin"
>>> class_assignment("DELERILKELSNLETLY [RPB4]")
"top bin"
>>> class_assignment("GIVSVSDPQMKVFDTLT [RPN1]")
"middle bin"
>>> class_assignment("EITDAYCFAKNDLFFNN [YMR129W/POM152]")
"middle bin"
>>> class_assignment("YSVYLIHEIRLNTLNNV [SIR3]")
"middle bin"
>>> class_assignment("EPLAFYLEESFTNLGII [RGR1]")
"middle bin"
>>> class_assignment("LDKIYTRPISSQVLDLA [SMC2]")
"bottom bin"
>>> class_assignment("GYDDFQEEGSFEFGNMK [FAS2]")
"middle bin"
>>> class_assignment("VQELLKVLNEISKTTLT [RPN3]")
"top bin"
>>> class_assignment("EDYAIVTKGGTVENPLR [PRP28]")
"top bin"
>>> class_assignment("NKLSGILADEMGLGKTL [ISW2]")
"top bin"
>>> class_assignment("GLIAARRTGLLRGSQKT [RPL2A]")
"middle bin"
>>> class_assignment("STIITKAINQELEDVAV [YCS4]")
"middle bin"
>>> class_assignment("SVERGRKRAHSLVSTQS [REC8]")
"top bin"
>>> class_assignment("KDIEKLTNEISDLKGKL [YIL149C/MLP2]")
"top bin"
>>> class_assignment("FKKLTKDIFRYMQRTVE [RPB2]")
"bottom bin"
>>> class_assignment("SLDTSASTINGASIIQV [YML103C/NUP188]")
"bottom bin"
>>> class_assignment("ISQKLHDSILHSRILPK [RRP43]")
"middle bin"
>>> class_assignment("FKLGKFNYVAVGDVSNL [QCR2]")
"middle bin"
>>> class_assignment("KSGIPEFTPADPNLSFE [SSN2]")
"middle bin"
>>> class_assignment("GSGLLKLSEIILNINNS [SWI1]")
"middle bin"
>>> class_assignment("SNQERCHDEGNDMLQRN [RRI1]")
"top bin"
>>> class_assignment("VIPSYSKWFNLEKIHSI [SWI3]")
"bottom bin"
